Here's what we have: MIC numbers for Escherichia coli ATCC 25922.

Field: example entries. Status: answers known.
Param readout = MIC; param system = Escherichia coli ATCC 25922; param query = `CC[C@H](C)[C@H](NC(=O)CNC(=O)[C@H](C)NC(=O)[C@H](CC(C)C)NC(=O)[C@@H](NC(=O)[C@H](CCCN=C(N)N)NC(=O)CNC(=O)[C@@H](NC(=O)[C@H](CC(C)C)NC(=O)[C@@H]1CCCN1C(=O)[C@H](CC(C)C)NC(=O)[C@@H](N)Cc1ccccc1)[C@@H](C)CC)C(C)C)C(=O)N[C@@H](CC(C)C)C(N)=O` ; response: value
> 40 µM

Param readout = MIC; param system = Escherichia coli ATCC 25922; param query = `CC[C@H](C)[C@H](NC(=O)[C@H](CCCCN)NC(=O)[C@H](CCCCN)NC(=O)[C@H](CC(C)C)NC(=O)[C@H](CCCN=C(N)N)NC(=O)[C@H](CCCCN)NC(=O)[C@H](CCCN=C(N)N)NC(=O)[C@H](CCCCN)NC(=O)[C@H](CCCCN)NC(=O)[C@H](CCCCN)NC(=O)[C@H](CCCN=C(N)N)NC(=O)[C@H](CC(C)C)NC(=O)[C@H](CCCN=C(N)N)NC(=O)[C@H](CCCN=C(N)N)NC(=O)[C@H](Cc1ccccc1)NC(=O)[C@@H](N)CCCN=C(N)N)C(N)=O` ; response: value
128 µM

Continuing:
Param readout = MIC; param system = Escherichia coli ATCC 25922; param query = `CC(C)C[C@H](NC(=O)[C@H](C)NC(=O)CNC(=O)[C@@H](NC(=O)[C@@H](NC(=O)[C@H](CCCCN)NC(=O)[C@H](CCCCN)NC(=O)[C@@H](NC(=O)[C@H](CC(C)C)NC(=O)[C@H](CCCCN)NC(=O)[C@H](CC(C)C)NC(=O)[C@H](CC(C)C)NC(=O)[C@@H](N)CCCCN)C(C)C)C(C)C)C(C)C)C(=O)NCC(N)=O` ; response: value
> 22 µM

* * *

In this section we review reported MIC values for a set of molecules.
Test system: Escherichia coli ATCC 25922
test-description: ≥ marks a high value that may be exact or a test limit, other limits are often not marked, values filed in µg/mL are converted to µM
# unit: µM | format: bare number

For CC[C@H](C)[C@H](NC(=O)[C@H](Cc1c[nH]c2ccccc12)NC(=O)[C@H](CCCN=C(N)N)NC(=O)[C@@H](NC(=O)[C@@H](N)CCCN=C(N)N)[C@@H](C)CC)C(=O)N[C@@H](CC(C)C)C(=O)N[C@@H](CCCN=C(N)N)C(=O)N[C@@H](Cc1ccc(O)cc1)C(=O)N[C@@H](Cc1c[nH]c2ccccc12)C(=O)N[C@@H](CCCN=C(N)N)C(=O)N[C@@H](Cc1c[nH]c2ccccc12)C(=O)N[C@@H](CO)C(=O)O [RIRWILRYWRWS] , what is its reported MIC?
2

Continuing:
For CC[C@H](C)[C@H](NC(=O)[C@H](CCCN=C(N)N)NC(=O)CNC(=O)[C@H](CC(C)C)NC(=O)[C@H](Cc1ccccc1)NC(=O)[C@H](CCCN=C(N)N)NC(=O)[C@H](CO)NC(=O)[C@H](Cc1ccccc1)NC(=O)[C@H](Cc1c[nH]c2ccccc12)NC(=O)[C@H](CCC(N)=O)NC(=O)[C@@H](NC(=O)[C@@H](N)Cc1ccccc1)C(C)C)C(=O)N[C@@H](CC(C)C)C(N)=O [FVQWFSRFLGRIL] , what is its reported MIC?
12

* * *

Test system: Bacillus subtilis 168
In this section we review reported MIC values for a set of molecules.
# unit: µM | format: bare number

Param readout = MIC; param system = Bacillus subtilis 168; param query = `CC[C@H](C)[C@H](NC(=O)[C@H](CCCCN)NC(=O)[C@H](CCCCN)NC(=O)[C@H](Cc1c[nH]c2ccccc12)NC(=O)[C@H](CC(N)=O)NC(=O)[C@@H](N)C(C)C)C(=O)N[C@@H](CC(C)C)C(=O)N1CCC[C@H]1C(=O)N[C@@H](CCCCN)C(=O)N[C@H](C(=O)N[C@H](C(=O)N[C@@H](CCCCN)C(=O)N[C@H](C(=O)N[C@@H](C)C(=O)N[C@@H](CCCCN)C(N)=O)C(C)C)[C@@H](C)CC)[C@@H](C)CC` ; response: value
0.7

Consider the record given below.
Param readout = MIC; param system = Bacillus subtilis 168; param query = `CC[C@H](C)[C@H](NC(=O)CN)C(=O)N[C@@H](CCSC)C(=O)N[C@H](C(=O)N[C@@H](CO)C(=O)N[C@@H](CC(C)C)C(=O)N[C@@H](CCSC)C(=O)N[C@@H](CCCCN)C(=O)N[C@@H](CCCCN)C(=O)N[C@@H](CC(C)C)C(=O)N[C@@H](C)C(=O)N[C@@H](C)C(=O)N[C@@H](Cc1cnc[nH]1)C(=O)N[C@H](C(=O)N[C@@H](C)C(=O)N[C@@H](CCCCN)C(N)=O)[C@@H](C)CC)[C@@H](C)CC` ; response: value
7

* * *

Here's what we have: MIC numbers for Staphylococcus aureus ATCC 6538.
# unit: µM | format: bare number

Field: example entries. Status: answers known.
Param readout = MIC; param system = Staphylococcus aureus ATCC 6538; param query = `CC[C@H](C)[C@H](NC(=O)CN)C(=O)N[C@@H](Cc1ccccc1)C(=O)N[C@@H](CO)C(=O)N[C@H](C(=O)N[C@H](C(=O)N[C@@H](Cc1ccccc1)C(=O)N[C@@H](CCCCN)C(=O)N[C@@H](C)C(=O)NCC(=O)N[C@@H](CCCCN)C(=O)NCC(=O)N[C@H](C(=O)N[C@H](C(=O)N[C@H]1CSSC[C@@H](C(=O)O)NC(=O)[C@H](CC(C)C)NC(=O)CNC(=O)[C@H]([C@@H](C)O)NC(=O)[C@H](CC(C)C)NC(=O)CNC1=O)C(C)C)[C@@H](C)CC)C(C)C)[C@@H](C)O` ; response: value
3.1

Param readout = MIC; param system = Staphylococcus aureus ATCC 6538; param query = `CC(C)C[C@H](NC(=O)[C@H](C)NC(=O)[C@H](CCCCN)NC(=O)[C@H](CCCCN)NC(=O)[C@H](CC(C)C)NC(=O)[C@H](C)NC(=O)[C@H](CCCCN)NC(=O)[C@H](Cc1ccccc1)NC(=O)[C@H](CC(C)C)NC(=O)[C@H](CC(C)C)NC(=O)[C@H](CCCCN)NC(=O)[C@H](C)NC(=O)[C@@H](N)Cc1ccccc1)C(N)=O` ; response: value
33.5

Continuing:
Param readout = MIC; param system = Staphylococcus aureus ATCC 6538; param query = `CC(C)C[C@H](NC(=O)[C@H](C)NC(=O)[C@H](CC(C)C)NC(=O)[C@H](CCCCN)NC(=O)[C@H](C)NC(=O)[C@H](CC(C)C)NC(=O)[C@H](CCCCN)NC(=O)[C@H](CCCCN)NC(=O)[C@H](C)NC(=O)[C@H](CC(C)C)NC(=O)[C@H](CCCCN)NC(=O)[C@H](CCCCN)NC(=O)[C@H](C)NC(=O)[C@@H](N)Cc1ccccc1)C(N)=O` ; response: value
3.24

Param readout = MIC; param system = Staphylococcus aureus ATCC 6538; param query = `CC(C)C[C@H](NC(=O)[C@H](CCCCN)NC(=O)[C@H](CC(C)C)NC(=O)[C@H](CCCCN)NC(=O)[C@H](CC(C)C)NC(=O)[C@H](C)NC(=O)[C@H](CCCCN)NC(=O)[C@H](C)NC(=O)[C@H](CC(C)C)NC(=O)[C@H](CC(C)C)NC(=O)[C@H](CCCCN)NC(=O)[C@H](C)NC(=O)[C@@H](N)Cc1ccccc1)C(N)=O` ; response: value
6.86

* * *

Here's what we have: MIC numbers for Escherichia coli ATCC 25922.
# unit: µM | format: bare number

Param readout = MIC; param system = Escherichia coli ATCC 25922; param query = `CC(C)C[C@H](NC(=O)[C@H](Cc1c[nH]c2ccccc12)NC(=O)CNC(=O)[C@H](CC(C)C)NC(=O)[C@@H](N)Cc1ccccc1)C(=O)N[C@@H](Cc1ccccc1)C(=O)N[C@@H](CCCCN)C(=O)N[C@@H](Cc1c[nH]c2ccccc12)C(=O)N[C@@H](C)C(=O)N[C@@H](Cc1c[nH]c2ccccc12)C(=O)N[C@@H](CCCCN)C(N)=O` ; response: value
16.9

Continuing:
Param readout = MIC; param system = Escherichia coli ATCC 25922; param query = `CC[C@H](C)[C@H](NC(=O)[C@H](CCCN=C(N)N)NC(=O)CNC(=O)[C@H](CC(C)C)NC(=O)[C@H](Cc1ccccc1)NC(=O)[C@H](CCCN=C(N)N)NC(=O)[C@H](CO)NC(=O)[C@H](Cc1ccccc1)NC(=O)[C@H](Cc1c[nH]c2ccccc12)NC(=O)[C@H](CCCN=C(N)N)NC(=O)[C@@H](NC(=O)[C@@H](N)Cc1ccccc1)C(C)C)C(=O)N[C@@H](CC(C)C)C(N)=O` ; response: value
48
